Data provenance: paper PMC9995496

system: PRKACA-PRKAR2A interaction (SmBiT-PRKACA / LgBiT-PRKAR2A), protein kinase A; parameters: NanoLuc complementation counter-screen in cell extract, PRKACA with PRKAR2A, loss of luminescence, detects NanoLuc interference; conditions: counter-screen for NanoLuc interference; 0.5 h, 20 µM; inhibitor
Where a name gives a salt, the structure may show the parent alone.
property_name: Inh (PKA) (%)
Your answer is read as %, so omit the unit and give the number.

These recorded examples may help you get a feel for the data.
molecule: CCOC(=O)COc1ccc(/C=C2\SC(=S)NC2=O)cc1OC
result_units: %
value_observed: 35.49
//
molecule: O=C(Nc1cc(C(F)(F)F)cc(C(F)(F)F)c1)c1cc(Cl)ccc1O
result_units: %
value_observed: 90.14
//
molecule: C[C@H](NC(=O)[C@@H](O)c1cc(F)cc(F)c1)C(=O)N[C@@H]1C(=O)N(C)c2ccccc2-c2ccccc21
result_units: %
value_observed: 13.09
//
molecule: Cc1onc(-c2ccccc2)c1-c1ccc(S(N)(=O)=O)cc1
result_units: %
value_observed: 9.885
//
molecule: CCCCCCCCCc1ccc(B(O)O)cc1
result_units: %
value_observed: -0.3283

query: For the molecule "CN(C)C(=O)[C@H](O)[C@H](Cc1ccccc1)NC(=O)c1cc2cc(Cl)ccc2[nH]1" , give its reported Inh (PKA).
result: 53.3

query: Report measured Inh (PKA); entry is "O=S(=O)(O)c1ccc2cc(N=Nc3cc(S(=O)(=O)O)c4cccnc4c3O)ccc2c1"
result: 48.34

query: Supply measured Inh (PKA) of CCN(CC)CCOC(=O)C(c1ccccc1)c1ccccc1 [UM0118069:03, Adiphenine HCl] in your reply.
result: 2.953

query: Answer with the recorded Inh (PKA) of Cc1c(CN2CCN(C(=O)[C@H](C)O)CC2)sc2c(N3CCOCC3)nc(-c3cnc(N)nc3)nc12 [UM0142435:01, GDC-0980 (RG7422)] only.
result: 0.4199

query: Supply Inh (PKA) value. Item: "C[C@H](NC(=O)/C(C#N)=C/c1cccc(Br)n1)c1ccccc1"
result: 28.21

query: Name the recorded Inh (PKA) of the item "O=C(/C=C/c1cccc(S(=O)(=O)Nc2ccccc2)c1)NO" in your answer.
result: 1.422
